Value source: patent US12336981B2

biological target: NAMPT (Homo sapiens); construct: His tag; host or cells: E. coli; assay: Biochemical inhibition assay: NAMPT enzymatic reaction, NMN quantified by mass spectrometry; conditions: NAMPT enzymatic assay; read-out: Biochem IC50
Sequence (P43490 whole entry): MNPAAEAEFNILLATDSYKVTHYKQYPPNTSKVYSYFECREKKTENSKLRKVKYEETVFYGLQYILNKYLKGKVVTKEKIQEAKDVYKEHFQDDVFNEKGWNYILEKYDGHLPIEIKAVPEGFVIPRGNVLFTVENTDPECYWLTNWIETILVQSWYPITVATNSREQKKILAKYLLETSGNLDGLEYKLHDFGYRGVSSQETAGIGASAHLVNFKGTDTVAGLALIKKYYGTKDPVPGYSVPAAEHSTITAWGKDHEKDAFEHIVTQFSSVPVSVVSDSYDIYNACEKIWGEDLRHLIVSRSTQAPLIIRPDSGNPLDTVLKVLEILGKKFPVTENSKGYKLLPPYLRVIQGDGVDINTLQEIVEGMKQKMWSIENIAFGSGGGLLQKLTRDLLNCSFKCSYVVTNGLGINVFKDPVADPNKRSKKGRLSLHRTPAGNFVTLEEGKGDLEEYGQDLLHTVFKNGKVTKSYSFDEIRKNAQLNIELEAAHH
pIC50: −log10 of the molar value.
Quick reference: pIC50 of the listed items.
endpoint.label: pIC50

[[record]]
molecule_smiles = "Cn1cc(S(=O)(=O)c2ccc(CNC(=O)c3cc4ccncc4o3)cc2)cn1"
val = 7.77

[[record]]
molecule_smiles = "Cc1cnc(S(=O)(=O)c2ccc(CNC(=O)c3cnc4nccn4c3)cc2)n1C"
val = 7.48

[[record]]
molecule_smiles = "O=C(NCc1ccc(S(=O)(=O)c2ccc(-n3cccn3)c(F)c2)cc1)c1cc2ccncc2o1"
val = 7.76

[[record]]
molecule_smiles = "O=C(NCc1ccc(S(=O)(=O)c2ccc(OC(F)(F)F)c(F)c2)cc1)c1cnc2nccn2c1"
val = 8.40

[[record]]
molecule_smiles = "CC(C)COc1ccc(S(=O)(=O)c2ccc(CNC(=O)c3cnc4[nH]ncc4c3)cc2)cc1"
val = 7.58

[[record]]
molecule_smiles = "Cc1ccc(Cl)c(S(=O)(=O)c2ccc(CNC(=O)c3cc4cnccc4[nH]3)cc2)c1F"
val = 8.19

[[record]]
molecule_smiles = "COc1ccc(F)cc1NS(=O)(=O)c1ccc(CNC(=O)c2ccc3ncccc3c2)cc1"
val = 7.18

[[record]]
molecule_smiles = "O=C(NCc1ccc(S(=O)(=O)c2cnc3ccccc3c2)cc1)c1ccc2nccn2c1"
val = 7.85

[[record]]
molecule_smiles = "Cc1cccc(S(=O)(=O)c2ccc(CNC(=O)c3cc4cnccc4[nH]3)cc2)c1C"
val = 7.85

[[record]]
molecule_smiles = "O=C(NCc1ccc(S(=O)(=O)c2ccc(OC(F)(F)F)c(F)c2)cc1)c1cnc2[nH]ncc2c1"
val = 7.76

[[record]]
molecule_smiles = "COc1ccc(OC(F)(F)F)cc1S(=O)(=O)c1ccc(CNC(=O)c2cnc3[nH]ncc3c2)cc1"
val = 7.03

[[record]]
molecule_smiles = "O=C(NCc1ccc(S(=O)(=O)c2cccc3c2Oc2ccccc2S3)cc1)c1cnc2nccn2c1"
val = 8.68

[[record]]
molecule_smiles = "CC(C)NC(=O)c1cc(S(=O)(=O)c2ccc(CNC(=O)c3cnc4nccn4c3)cc2)ccc1F"
val = 8.11

[[record]]
molecule_smiles = "O=C(NCc1ccc(S(=O)(=O)c2cc(F)cc(N3CCCC3)c2)cc1)c1ccc2nccn2c1"
val = 8.41

[[record]]
molecule_smiles = "O=C(NCc1ccc(S(=O)(=O)c2ccc(C(F)(F)F)c(Cl)c2)cc1)c1cc2ccncc2o1"
val = 8.10

[[record]]
molecule_smiles = "O=C(NCc1ccc(S(=O)(=O)c2cc(C(F)(F)F)ccn2)cc1)c1cc2ccncc2s1"
val = 8.44

[[record]]
molecule_smiles = "Cn1ncc2cc(S(=O)(=O)c3ccc(CNC(=O)c4cc5ccncc5o4)cc3)ccc21"
val = 8.48

[[record]]
molecule_smiles = "O=C(NCc1ccc(S(=O)(=O)c2cc(F)cc(OCC(F)(F)F)c2)cc1)c1cnc2nccn2c1"
val = 8.72


* * *

tested on: A2780 cells; assay: In-vitro cell proliferation assay (SRB), A2780 cells; type: cell-based; settings: A2780 cells, 72 hours, SRB; read-out: A2780 IC50
Binarize IC50 at 30 nM; below is 1, at or above is -1.

[[record]]
molecule_smiles = "O=C(NCc1ccc(S(=O)(=O)c2ccc(OC(F)(F)F)cc2)cc1)c1cc2ccncc2o1"
category = 1

[[record]]
molecule_smiles = "Cc1c(F)cccc1S(=O)(=O)c1ccc(CNC(=O)c2cc3ccncc3s2)cc1"
category = 1

[[record]]
molecule_smiles = "O=C(NCc1ccc(S(=O)(=O)c2ccc(OCCN3CCCC3)cc2)cc1)c1cc2cnccc2[nH]1"
category = 1

[[record]]
molecule_smiles = "Cc1ccc(F)c(S(=O)(=O)c2ccc(CNC(=O)c3cnc4[nH]ncc4c3)cc2)c1"
category = -1

[[record]]
molecule_smiles = "O=C(NCc1ccc(S(=O)(=O)c2cc(Cl)cc(CO)c2)cc1)c1cc2ccncc2s1"
category = 1

[[record]]
molecule_smiles = "O=C(NCc1ccc(S(=O)(=O)c2cccc(N3CCCCC3)c2)cc1)c1cnc2nccn2c1"
category = 1

[[record]]
molecule_smiles = "COCc1cccc(S(=O)(=O)c2ccc(CNC(=O)c3cnc4[nH]ncc4c3)cc2)c1"
category = -1

